# testedTarget: T1, cynomolgus CD3 (cynomolgus (Macaca fascicularis), UniProt Q95LI5 22-198; Q95LI8 22-171; Q95LI7 23-181)
# T1 construct: whole, on cells; composition of the 'mix' not defined; also called cynoCD3
# T1 sequence (Q95LI5 22-198, chain 1 of 3): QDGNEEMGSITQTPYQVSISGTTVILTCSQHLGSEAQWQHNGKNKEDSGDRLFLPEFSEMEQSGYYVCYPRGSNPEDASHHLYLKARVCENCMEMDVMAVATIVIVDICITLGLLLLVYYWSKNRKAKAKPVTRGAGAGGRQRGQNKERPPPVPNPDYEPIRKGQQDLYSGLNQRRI
# T1 sequence (Q95LI8 22-171, chain 2 of 3): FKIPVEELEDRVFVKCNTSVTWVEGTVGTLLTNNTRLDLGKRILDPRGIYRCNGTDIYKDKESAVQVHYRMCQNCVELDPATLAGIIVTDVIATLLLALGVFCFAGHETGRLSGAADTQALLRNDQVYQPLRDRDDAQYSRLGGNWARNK
# T1 sequence (Q95LI7 23-181, chain 3 of 3): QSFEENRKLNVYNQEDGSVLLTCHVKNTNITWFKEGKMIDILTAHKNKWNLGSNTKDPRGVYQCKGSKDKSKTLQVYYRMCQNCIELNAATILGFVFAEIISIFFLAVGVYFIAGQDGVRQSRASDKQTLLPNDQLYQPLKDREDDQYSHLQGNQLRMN
# assayProcedure: FACS on 293T-cynoCD3mix cells
Recorded measurements of EC50, one per entry
Numeric answer plus unit only.

ch147C6F3 (antibody, V domains shown) VH: QVQLQQPGTELVKPGASVKLSCKASGYTFDSYWMHWVKQRPGQGLEWIGNLNPSNGEINYNEKFKHKATLTVDKSSSTAYMQLSSLTSEDSAVYYCSRDRSSQYYFDYWGQGTTLTVSS VL: DIVMSQSPSSLAVSAGEKVTLSCKSSQSLLNSRTRKNYLAWYQQKSGQSPKLLMYWASTRESGVPDRFTGSGSGTDFTLTITNVQAEDLAVYYCKQSYILRTFGGGTKLEIK | 4.15 nM

Note: attention shifts to another entry.
-- ask # get_value(readout='EC50', item= ch140D2B10 (antibody, V domains shown) VH: QVQLQQPGTELVKPGASVKLSCKASGYTFTSYWMHWVKQRPGQGLEWIGNINPSNGESNYNEKFKSKATLTVDKSSSTAYMQLSSLTSEDYAVYYCARDRSSQYYFDYWGQGTTLTVSS VL: DIVMSQSPSSLAVSAGEKVTMSCKSSQSLLNSRTRKNYLAWYQQKPGQSPKLLIYWASTRESGVPDRFTGSGSGTDFTLTISSVQAEDLAVYYCKQSYTLRTFGGGTKLEIK )
-- reply 2.81 nM
